Experiment: Acute toxicity in mice with intraperitoneal administration (compound 1)
Conditions: both sexes, CD-1 (ICR), mouse, in vivo, ip, printed 'in rats', study in CD-1 mice
Readout: LD50 at 14 days

Recorded result, Cc1nc(CS(=O)(=O)O)c(CO)c(CO)c1O [compound 1] , LD50 at 14 days: > 2000 mg/kg
